assay protocol: E. coli acrAB mutant growth effects, primary screen, E. coli filamentation inducers, strain DRC39, OD650, 24 h (AID 1178);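 also: growth measured as culture turbidity by optical density at 650 nm; test concentration not given here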
condition set: higher = more signal, called active from +8 up or from −8 down
readout label: z-score

INSERT INTO measurements (structure_smiles, readout_label, readout_value) VALUES
  ('CC(=O)NCCCC[C@@H]1NC(=O)[C@H]2C[C@@H](C(=O)NCCCCCCNC(=O)CS)[C@@H](c3ccc(O)cc3)N2C1=O', 'z-score', -0.622),
  ('CO[C@H]1O[C@H](CO)[C@@H](OC(=O)Nc2ccccc2)[C@H](OC(=O)Nc2ccccc2)[C@@H]1OC(=O)Nc1ccccc1', 'z-score', 0.576),
  ('C=CCNC(=O)[C@@H]1[C@H]2C(=O)O[C@H](c3ccccc3)[C@H](c3ccccc3)N2[C@H](c2ccccc2OCCO)[C@@]12C(=O)N(C(=O)OCCOC)c1ccccc12', 'z-score', 0.0191),
  ('COC(=O)C(CC#Cc1ccc2c(c1)[C@]1(C(=O)N2)[C@H](c2ccc(OCCO)cc2)N2[C@H](c3ccccc3)[C@H](c3ccccc3)OC(=O)[C@H]2[C@@H]1C(=O)Nc1nc2ccccc2s1)C(=O)OC', 'z-score', 1.01),
  ('COC(=O)[C@@]1(Cc2ccc(F)cc2)[C@H]2c3cc(C(=O)N(C)C)n(Cc4ccc(Cl)c(C(F)(F)F)c4)c3C[C@H]2CN1C(=O)c1ccccc1', 'z-score', -1.2),
  ('NC(=O)NCC#Cc1ccc2c(c1)[C@]1(C(=O)N2)[C@H](C(=O)Nc2nc3ccccc3s2)[C@H]2C(=O)O[C@H](c3ccccc3)[C@H](c3ccccc3)N2[C@@H]1c1ccccc1OCCO', 'z-score', -0.846);

###

subject of test: Dihydroorotate dehydrogenase (quinone), mitochondrial (Plasmodium falciparum (isolate 3D7))
assay protocol: PfDHODH enzyme inhibitors, primary screen, biochemical, C-terminal His tag, absorbance 600 nm (AID 1175);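 also: recombinant parasite enzyme with a five histidine tag at its C terminus; test concentration not given here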
condition set: DCIP absorbance 600 nm, higher = more signal, called active from +8 up or from −8 down
Short version: composite z-score at least 0.6 is y, less is n.

INSERT INTO measurements (compound, assigned_label) VALUES
  ('CC1(C)[C@@H]2CC(C(O)C3C=CC4C(=O)N(c5ccccc5)C(=O)C4N3Nc3ccc([N+](=O)[O-])cc3)=C[C@H]1C2 (stereo partly specified)', 'y'),
  ('O=C1N[C@@H](Cc2ccccc2)C(=O)N2[C@@H]1C[C@@H](C(=O)O)[C@H]2c1cccc(OCCO)c1', 'n'),
  ('CC(C)[Si](C#Cc1ccc(Oc2ccccc2)cc1)(O[Si](C#Cc1ccc(Oc2ccccc2)cc1)(C(C)C)C(C)C)C(C)C', 'y'),
  ('C=CC[C@@]12N=C(c3ccc(OCCCO)cc3)O[C@@H]1c1ccccc1N(C)C2=O', 'n'),
  ('COC(=O)[C@@]1(CCS(=O)(=O)c2ccccc2)N=C(c2ccc(OCCCO)cc2)O[C@H]1c1ccccc1CN=[N+]=[N-]', 'n');

###

// composite z-score lookup, one value per entry
subject of test: Calmodulin-1 (Homo sapiens)
assay protocol: CALM1 binders on microarrays, EGTA buffer, profiling panel, biochemical, small-molecule microarray, Cy5-labelled CALM1 (AID 1111);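 also: labelled calmodulin applied in Tris saline Tween buffer holding calcium plus EGTA and DTT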
condition set: Cy5-CALM1 binding fluorescence, higher = more signal
readout label: composite z-score

INSERT INTO results (structure_smiles, readout_value) VALUES
  ('O=C1c2ccccc2[C@](Cc2ccccc2I)(C(=O)NCC(F)(F)F)[C@H](c2ccc(CO)cc2)N1Cc1ccccc1Cl', 1.03),
  ('[N-]=[N+]=NCc1ccccc1C[C@]1(C(N)=O)COC(c2ccc(OCCCO)cc2)=N1', 2.01),
  ('COC(=O)[C@@]1(Cc2ccccc2)[C@H]2c3cc(C(=O)N(C)C)n(Cc4ccsc4Br)c3C[C@H]2CN1C(=O)c1ccccc1', 1.79),
  ('O=C1[C@@]23C=C(Br)[C@H](C[C@@H]2CCOC3)[C@@]12CO2', -0.206),
  ('C=CCN1C(=O)[C@@]2(CC=C)N=C(c3ccc(OCCCO)cc3)O[C@H]2c2ccccc21', 3.11),
  ('COC(=O)[C@@]1(Cc2ccc(OC)cc2)[C@H]2c3cc(C(=O)N(C)C)n(Cc4ccccn4)c3C[C@H]2CN1C(=O)c1ccccc1', 2.86),
  ('COc1ccccc1CN1C(=O)c2ccccc2[C@@H](C(=O)NC2CC2)[C@@H]1c1ccc(CO)cc1', 0.522),
  ('CNS(=O)(=O)c1ccc(C)cc1', -0.206),
  ('C=C(CCCC)/C(=C/C[C@@H](OC(=O)c1ccncc1)c1ccc(OCCO)cc1)c1cc(C(=O)OC)ccc1OC', 0.168),
  ('CCC[C@@H]1C[C@@]1(CCC)[C@@H](NC(=O)c1ccccc1)c1cccc(Cl)c1', 1.97),
  ('C=CCOC(=O)[C@H]1[C@@H]2C(=O)O[C@@H](c3ccccc3)[C@@H](c3ccccc3)N2[C@@H](c2ccc(OCCOC(=O)[C@H]3C[C@H]4C(=O)N[C@@H](CCCCNC(C)=O)C(=O)N4[C@H]3c3ccc(O)cc3)cc2)[C@]12C(=O)Nc1ccc(I)cc12', 0.124),
  ('C=C(/C(=C/C[C@H](OC(C)=O)c1ccccc1OCCO)c1cnc2ccccc2c1)C(C)C', 0.361),
  ('COCCOC(=O)N1C(=O)[C@@]2(c3cc(C#CCC(C(=O)OC)C(=O)OC)ccc31)[C@H](c1ccccc1OCCO)N1[C@H](c3ccccc3)[C@H](c3ccccc3)OC(=O)[C@H]1[C@@H]2C(=O)NC[C@H](O)c1ccccc1', 0.832),
  ('C=C[C@H](OC)[C@@H](OC(=O)Nc1ccc(OC)cc1)c1ccc(O)c(F)c1', -1.25),
  ('O=C(CS)NCCCCCCNC(=O)[C@@H]1C[C@@H]2C(=O)N[C@@H](Cc3ccccc3)C(=O)N2[C@@H]1c1cccc(OCCO)c1', 0.309);
